tested on: CP191; assay: qHTS profiling for inhibitors of Plasmodium falciparum proliferation (AID 504749); also: nearly all actives have a fitted effect of over 60% in size; conditions: P. falciparum in erythrocytes, SYBR Green DNA, 72 h; series mostly up to 28.7 µM
Results filed as inconclusive are left out. Active and inactive are the calls of the source. Calls follow the shape of the dose curve; as a rule, active = well fitted inhibition curve with a large enough effect; inconclusive = small, poorly fitted or top-dose-only effect; inactive = flat fitted curve, though single readings scatter.
Give your call using only these classes: active, inactive

Consider the following illustrative entries.
# compound, assigned_label
records = [
    ("NC(N)=NC(=O)Cc1c(Cl)cccc1Cl", "active"),
    ("Cc1ccc(S(=O)(=O)NC(=O)NN2CCCCCC2)cc1", "inactive"),
    ("O=C(CCCN1CCC(O)(c2cccc(C(F)(F)F)c2)CC1)c1ccc(F)cc1", "active"),
    ("CC(C)(Oc1ccc(CCNC(=O)c2ccc(Cl)cc2)cc1)C(=O)O", "inactive"),
    ("CCCCCCCC/C=C\\CCCCCCCC(=O)NCc1ccc(O)c(OC)c1", "active"),
    ("CN1CCN(C2=Nc3ccccc3Oc3ccc(Cl)cc32)CC1", "inactive"),
]

IN: Give the logged outcome of this assay for the following compound: O=C1NCN(c2ccccc2)C12CCN(CCCC(c1ccc(F)cc1)c1ccc(F)cc1)CC2
OUT: active

IN: Give the logged outcome of this assay for the following compound: CCCOc1ccccc1-c1nc2n[nH]nc2c(=O)[nH]1
OUT: inactive

IN: Give the logged outcome of this assay for the following compound: CCOC(=O)C1=C(C)NC(C)=C(C(=O)OC)C1c1cccc(Cl)c1Cl (centres undefined)
OUT: inactive
